# credit: ChEMBL document CHEMBL1158378

# System: Radical scavenging activity
# PROTOCOL TEXT: Antioxidant activity assessed as inhibition of DPPH radical formation by Hatano's method
# Format: functional
Entries and their pEC50 values follow.
Reply with the value as a number alone.

The following molecules have reported results that may help.
CCOC(=O)c1sc2ccccc2c1Nc1ccc(OC)cc1OC = 3.77
COc1ccc(Nc2c(C(=O)O)sc3ccccc23)c(OC)c1 = 3.61
COc1ccc(Nc2cccc3c(C)c(C)sc23)cc1OC = 4.26
Cc1sc2c(Nc3cccc(C#N)c3)cccc2c1C = 1.84
COc1ccc(Nc2cc3sc(C)c(C)c3cc2C)cc1 = 4.14

Query: Entry under review: `COc1ccc(Nc2cc3sc(C)c(C)c3cc2C)cc1OC` . Reported pEC50?
Result: 4.3

Query: I am curious: what pEC50 value has been reported for `COc1ccc(Nc2cccc3c(C)c(C)sc23)cc1` ?
Result: 4.3

Query: Using the record for `Cc1sc2c(Nc3ccccn3)cccc2c1C` , report its pEC50.
Result: 2.26

Query: Quick check: pEC50 of `CCOC(=O)c1sc2ccccc2c1Nc1ccc(O)cc1O` ?
Result: 3.84

Query: I'd like to know its pEC50. The molecule in question is `COc1cccc(Nc2cccc3c(C)c(C)sc23)c1`
Result: 2.81

Query: Any idea what its pEC50 is? The molecule is `Cc1sc2c(Nc3cccnc3)cccc2c1C`
Result: 2.5

Query: Form field: reported pEC50 of `Fc1ccccc1Nc1csc2ccccc12`
Result: 3.81
